The following molecules are listed with their measured TGI values.
# System: TK-10 renal
# Assay Text: NCI tumour cell line growth inhibition, 48 h
Quantity: TGI

[[record]]
molecule = "COc1ccc(-n2cc(-c3cc(OC)c(OC)c(OC)c3)c(C(=O)C(F)(F)F)c2C)cc1"
quantity = "TGI"
recorded_value = "> 100 µM"

[[record]]
molecule = "c1nc(OCC2CCCCC2)c2[nH]cnc2n1"
quantity = "TGI"
recorded_value = "> 100 µM"

[[record]]
molecule = "CCOC(=O)c1c(-c2ccc(OC)cc2)c(C#N)c(=S)n(C2OC(COC(C)=O)C(OC(C)=O)C(OC(C)=O)C2OC(C)=O)c1-c1ccccc1 (centres undefined)"
quantity = "TGI"
recorded_value = "> 100 µM"

[[record]]
molecule = "CCCCCCCCCCCCCC1=NC(C)(C)CN1C(C)C"
quantity = "TGI"
recorded_value = "3 µM"

[[record]]
molecule = "Cc1ccc(Cc2c(=O)[nH]nc3ccccc23)cc1"
quantity = "TGI"
recorded_value = "> 100 µM"

[[record]]
molecule = "CCOC(=O)CCCn1c(SC)nc2[nH]cc(-c3ccccc3)c2c1=O"
quantity = "TGI"
recorded_value = "> 100 µM"

[[record]]
molecule = "CCCCCCCCCC1(N=[N+]=[N-])C(=O)c2ccccc2N(C)C1=O (centres undefined)"
quantity = "TGI"
recorded_value = "> 100 µM"

[[record]]
molecule = "O=c1[nH]c(=O)n(C2OC(CO)C(O)C2O)cc1NN=NCc1ccccc1 (centres undefined)"
quantity = "TGI"
recorded_value = "> 100 µM"

[[record]]
molecule = "S=C(Nc1ccccc1)N(/N=C/C=C/c1ccccc1)c1nnc(-c2ccccc2)c(-c2ccccc2)n1"
quantity = "TGI"
recorded_value = "> 100 µM"

[[record]]
molecule = "Cn1c2c(c3ccccc31)C1CCCCCCC1C1C(=O)OC(=O)C21 (centres undefined)"
quantity = "TGI"
recorded_value = "> 100 µM"

[[record]]
molecule = "CC(C)CC1C(=O)NCCC(NC(=O)C(Cc2ccc(OC(C)(C)C)cc2)NC(=O)OC(C)(C)C)C(=O)NC(Cc2ccccc2)C(=O)NC(Cc2ccccc2)NC1=O (centres undefined)"
quantity = "TGI"
recorded_value = "33.8 µM"

[[record]]
molecule = "Cc1cc([N+](=O)[O-])ccc1Nc1cccc(Cl)c1C"
quantity = "TGI"
recorded_value = "30 µM"

[[record]]
molecule = "CCOC(=O)C1=C(C)N(Cc2ccc(Cl)cc2Cl)C2(O)C=CC(=O)C3C(=O)N(c4ccccc4)C(=O)C132 (centres undefined)"
quantity = "TGI"
recorded_value = "8.09 µM"

[[record]]
molecule = "CCn1c(-c2nonc2N)nc2c(C#CC(C)(C)O)nc(OC[C@H](N)c3ccccc3)cc21"
quantity = "TGI"
recorded_value = "6.37 µM"

[[record]]
molecule = "COC(=O)C(=Cc1cc(OC)ccc1OC)C(=O)OC"
quantity = "TGI"
recorded_value = "97.4 µM"

[[record]]
molecule = "C[N+](CCCl)(CCCl)Cc1cccc2cccc([N+](=O)[O-])c12"
quantity = "TGI"
recorded_value = "> 100 µM"

[[record]]
molecule = "CCC[CH2][Sn]1([CH2]CCC)[O]N=C(c2ccccc2)C(c2ccccc2)[O]1 (centres undefined)"
quantity = "TGI"
recorded_value = "4.09 µM"

[[record]]
molecule = "[N-]=[N+]=NC12CC3C4CC5CC3C(C1)C(C5)C4C2"
quantity = "TGI"
recorded_value = "> 100 µM"

[[record]]
molecule = "C1C2CC3CC1CC(Nc1nc(NC45CC6CC(CC(C6)C4)C5)nc(NC45CC6CC(CC(C6)C4)C5)n1)(C2)C3"
quantity = "TGI"
recorded_value = "> 100 µM"

[[record]]
molecule = "COc1ccc(N2C(=O)C(=O)N(c3ccccc3[N+](=O)[O-])C2=S)cc1"
quantity = "TGI"
recorded_value = "65.7 µM"

[[record]]
molecule = "CC(C)(C)NC(NC(C)(C)C)=C(/C=C(/Cl)[N+](=O)[O-])[N+](=O)[O-]"
quantity = "TGI"
recorded_value = "> 100 µM"

[[record]]
molecule = "[Cl][Hg][c]1cc(Br)cc(Br)c1"
quantity = "TGI"
recorded_value = "6.35 µM"

[[record]]
molecule = "CNc1ccc(C(=O)CC(O)CCC(C)C2OC(=O)CC(O)CC(=O)CC(O)CC(O)CC(O)CC(O)CC3(O)CC(O)C(C(=O)NCCN(C)C)C(CC(OC4OC(C)C(O)C(NC(=O)CN5CCN(C)CC5)C4O)/C=C/C=C/C=C/C=C\\C=C/C=C/C=C/C2C)O3)cc1 (centres undefined)"
quantity = "TGI"
recorded_value = "> 100 µM"

[[record]]
molecule = "NC1CC(=O)c2c(Br)csc21 (centres undefined)"
quantity = "TGI"
recorded_value = "96.7 µM"

[[record]]
molecule = "CC(=O)Nc1ccc(N2C(=O)/C(=C\\c3cccc(Oc4ccccc4)c3)S(=O)(=O)C2c2ccccc2)cc1 (centres undefined)"
quantity = "TGI"
recorded_value = "> 100 µM"

[[record]]
molecule = "CC1=CC(C)C/C=C/C2C3OC3(C)C(C)C3C(Cc4c[nH]c5ccccc45)NC(=O)C23C(=O)C=CC(=O)C1O (centres undefined)"
quantity = "TGI"
recorded_value = "3.39 µM"

[[record]]
molecule = "O=C1C(Cl)N(c2ccc(Cl)cc2)C1c1c[nH]c2ccccc12 (centres undefined)"
quantity = "TGI"
recorded_value = "34.8 µM"

[[record]]
molecule = "Cc1ccc(C)c(C2=C(c3cn(C)c4ccccc34)C(=O)NC2=O)c1"
quantity = "TGI"
recorded_value = "> 25 µM"

[[record]]
molecule = "CC(C)N(C(=O)C12C3C4C5(C#N)C3C1(C#N)C5C42I)C(C)C (centres undefined)"
quantity = "TGI"
recorded_value = "> 100 µM"

[[record]]
molecule = "Nc1ncnc2c1ccn2C/C=C\\CO"
quantity = "TGI"
recorded_value = "> 100 µM"

[[record]]
molecule = "CCOC(=O)c1c(NC(=O)c2cccs2)sc2c1CCCC2"
quantity = "TGI"
recorded_value = "> 86.1 µM"

[[record]]
molecule = "Cc1ccc(S(=O)(=O)N(CC(=O)O)c2ccccc2)cc1"
quantity = "TGI"
recorded_value = "> 100 µM"

[[record]]
molecule = "O=c1c2sc(=S)n(-c3ccc(F)cc3)c2ncn1Cc1ccc(F)cc1F"
quantity = "TGI"
recorded_value = "> 100 µM"

[[record]]
molecule = "CC1=C(C(=O)Nc2ccccc2)C(c2ccccc2)C(C(=O)Nc2ccccc2)=C(C)N1"
quantity = "TGI"
recorded_value = "> 100 µM"

[[record]]
molecule = "COc1cc(C(Cc2ccccc2)NC(C)=O)oc(=O)c1 (centres undefined)"
quantity = "TGI"
recorded_value = "> 100 µM"

[[record]]
molecule = "COCC1OC(Sc2ccccc2)C(O)C(OC)C1OC (centres undefined)"
quantity = "TGI"
recorded_value = "> 100 µM"

[[record]]
molecule = "CS(=O)(=O)O[C@H]1CN2C[C@@H](O)[C@@H](O)[C@H]2[C@H]1CO"
quantity = "TGI"
recorded_value = "> 100 µM"

[[record]]
molecule = "C=C(CNCc1ccccc1)c1ccc(C(=O)Nc2ccccc2N)cc1"
quantity = "TGI"
recorded_value = "21.7 µM"

[[record]]
molecule = "OCCCCCCCCCCCOc1ccc(C2OCC3(CO2)COC(c2ccc(OCCCCCCCCCCCO)cc2)OC3)cc1 (centres undefined)"
quantity = "TGI"
recorded_value = "> 50 µM"

